Reference for the values: the RNAGym collection of RNA variant scans (doi:10.7554/elife.80360)

B1: Twister Ribozyme (parent)
chain: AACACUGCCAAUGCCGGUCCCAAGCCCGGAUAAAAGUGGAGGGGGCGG

variants of: B1; test: self-cleavage, relative activity (ratio to wild type); higher = more cleavage; co-transcriptional
result.type: self-cleavage
Form: value (number only, do not type unit).

Q: Could you tell me which self-cleavage is on file for C5U G42A ?
Ans: 0.184

Q: Any idea what its self-cleavage is? The variant is A2U G48U
Ans: 0.581

Q: Name the recorded self-cleavage for C15U C20U .
Ans: 0.845

Q: Item A11C G48U has what recorded self-cleavage?
Ans: 1.06

Q: Which self-cleavage is listed for C14U G17U ?
Ans: 0.373

Q: Need self-cleavage of G24C A35C , thanks.
Ans: 0.0752

Q: Find the recorded self-cleavage belonging to A4C U12C and report it.
Ans: 0.228

Q: Using the record for C8A G43U , report its self-cleavage.
Ans: 0.119

Q: self-cleavage lookup needed for U12G U18G , thanks.
Ans: 0.0252

Q: self-cleavage lookup needed for C25U A32C , thanks.
Ans: 0.903

Q: Please look up its self-cleavage: G16C G24A
Ans: 0.0685

Q: Given A23C A34G , state its recorded self-cleavage.
Ans: 0.135

Q: Tell me the measured self-cleavage of G13A C14U , please.
Ans: 0.8

Q: Find the recorded self-cleavage belonging to C27A A30G and report it.
Ans: 0.529

Q: Form field: reported self-cleavage of C3G G44U
Ans: 0.425

Q: Which self-cleavage value is on record for U18G A32C ?
Ans: 0.0661

Q: // lookup self-cleavage for A10C A23U
Ans: 0.664

Q: Can you share its self-cleavage? I mean this variant: C15G A30C
Ans: 0.0706

Q: Requested field: self-cleavage. Item: C20A G45C
Ans: 0.161

Q: Look up self-cleavage: A1G C8U
Ans: 0.245

Q: Quick one: self-cleavage of C27A G29U ?
Ans: 0.132

Q: // lookup self-cleavage for C21U G39U
Ans: 0.0656
